- Tested on: SNB-19 CNS
- assay summary: NCI tumour cell line growth inhibition, 48 h
I'd be grateful if you could share measured TGI for these entries.

Prompt line: Recorded TGI of CSC1=NC(=Nc2c(C)cccc2C)C2(CCC(C(C)(C)C)CC2)N1c1ccc(Cl)cc1 (stereo not given) , please.
Response line: > 100 µM

Prompt line: Recorded TGI of `CCCCOCCOCCOC1=CC(=O)c2c(O)ccc(O)c2C1=O` , please.
Response line: 3.19 µM

Prompt line: Recorded TGI of O[C@]12C=C(c3nccc4c3[nH]c3ccccc34)[C@@H]3CCN(CCCC/C=C\CC1)C[C@@]31CC3/C=C\CCCCN3[C@H]12 (stereo not given in full) , please.
Response line: 16.2 µM

Prompt line: Recorded TGI of `Nc1nc(NNc2cccc(F)c2)cc(=O)[nH]1` , please.
Response line: > 100 µM

Prompt line: Recorded TGI of `CC(C)(C)c1cc(CCC(=O)Nc2ccc(Cl)cc2)[nH]c(=S)n1` , please.
Response line: > 100 µM
